Reported Σ ST values for the following compounds.
- Tested on: myocardium injury model of rats induced by ISO
- testProtocol: Myocardium injury (myocardial ischemia) model of rats induced by ISO
- Format: in vivo, SD rats
- conditionContext: rats, ISO s.c., drug 0.76 mg/kg, 48 h, n=8

compound	subjectOfTest	Σ ST (mv)
C[C@]12CC[C@H](OC(=O)CCCC(=O)O[C@H]3CC[C@@]4(C)C(=CC[C@@H]5[C@@H]4CC[C@]4(C)C(=O)CC[C@@H]54)C3)CC1=CC[C@@H]1[C@@H]2CC[C@]2(C)C(=O)CC[C@@H]12	myocardium injury model of rats induced by ISO	0.57
C[C@]12CC[C@H](OC(=O)CCCCC(=O)O[C@H]3CC[C@@]4(C)C(=CC[C@@H]5[C@@H]4CC[C@]4(C)C(=O)CC[C@@H]54)C3)CC1=CC[C@@H]1[C@@H]2CC[C@]2(C)C(=O)CC[C@@H]12	myocardium injury model of rats induced by ISO	0.61
C[C@]12CC[C@H](OC(=O)CC(=O)O[C@H]3CC[C@@]4(C)C(=CC[C@@H]5[C@@H]4CC[C@]4(C)C(=O)CC[C@@H]54)C3)CC1=CC[C@@H]1[C@@H]2CC[C@]2(C)C(=O)CC[C@@H]12	myocardium injury model of rats induced by ISO	0.50
CC12CCC3C(CC=C4CC(OC(=O)CCC(=O)OC5CCC6(C)C(=CCC7C8CCC(=O)C8(C)CCC76)C5)CCC43C)C1CCC2=O (stereo not shown)	myocardium injury model of rats induced by ISO	0.42

----------
- Tested on: osteoporosis model of rats induced by Retinoic acid
- testProtocol: Osteoporosis model of rats induced by Retinoic acid
- Format: in vivo, SD rats
- conditionContext: Retinoic acid 70 mg/kg, specimen orally 30 days (dose not given), right thighbone, n=8
parameterMeasured: Relative bone volume (%)

compound	units	valueReported
C[C@]12CC[C@H](OC(=O)CCCC(=O)O[C@H]3CC[C@@]4(C)C(=CC[C@@H]5[C@@H]4CC[C@]4(C)C(=O)CC[C@@H]54)C3)CC1=CC[C@@H]1[C@@H]2CC[C@]2(C)C(=O)CC[C@@H]12 [Compound E]	%	35.87
C[C@]12CC[C@H](OC(=O)CCCCC(=O)O[C@H]3CC[C@@]4(C)C(=CC[C@@H]5[C@@H]4CC[C@]4(C)C(=O)CC[C@@H]54)C3)CC1=CC[C@@H]1[C@@H]2CC[C@]2(C)C(=O)CC[C@@H]12 [Compound F]	%	37.14
C=C1/C(=C\C=C2/CCC[C@]3(C)[C@@H]([C@H](C)CCCC(C)(C)O)CC[C@@H]23)C[C@@H](O)C[C@@H]1O [Rocaltrol, reference compound]	%	36.72
CC12CCC3C(CC=C4CC(OC(=O)CCC(=O)OC5CCC6(C)C(=CCC7C8CCC(=O)C8(C)CCC76)C5)CCC43C)C1CCC2=O (stereo not shown) [Compound D]	%	41.55

----------
- Tested on: osteoporosis model of rats induced by Retinoic acid
- testProtocol: Osteoporosis model of rats induced by Retinoic acid
- Format: in vivo, SD rats
- conditionContext: Retinoic acid 70 mg/kg, specimen orally 30 days (dose not given), right thighbone, n=8
parameterMeasured: Average width of bone trabecula (μm)

compound	subjectOfTest	valueReported
CC12CCC3C(CC=C4CC(OC(=O)CCC(=O)OC5CCC6(C)C(=CCC7C8CCC(=O)C8(C)CCC76)C5)CCC43C)C1CCC2=O (centres unmarked)	osteoporosis model of rats induced by Retinoic acid	70.76
C[C@]12CC[C@H](OC(=O)CCCCC(=O)O[C@H]3CC[C@@]4(C)C(=CC[C@@H]5[C@@H]4CC[C@]4(C)C(=O)CC[C@@H]54)C3)CC1=CC[C@@H]1[C@@H]2CC[C@]2(C)C(=O)CC[C@@H]12	osteoporosis model of rats induced by Retinoic acid	74.67
C[C@]12CC[C@H](OC(=O)CCCC(=O)O[C@H]3CC[C@@]4(C)C(=CC[C@@H]5[C@@H]4CC[C@]4(C)C(=O)CC[C@@H]54)C3)CC1=CC[C@@H]1[C@@H]2CC[C@]2(C)C(=O)CC[C@@H]12	osteoporosis model of rats induced by Retinoic acid	68.66
C[C@]12CC[C@H](OC(=O)CC(=O)O[C@H]3CC[C@@]4(C)C(=CC[C@@H]5[C@@H]4CC[C@]4(C)C(=O)CC[C@@H]54)C3)CC1=CC[C@@H]1[C@@H]2CC[C@]2(C)C(=O)CC[C@@H]12	osteoporosis model of rats induced by Retinoic acid	72.69
C=C1/C(=C\C=C2/CCC[C@]3(C)[C@@H]([C@H](C)CCCC(C)(C)O)CC[C@@H]23)C[C@@H](O)C[C@@H]1O [Rocaltrol, reference compound]	osteoporosis model of rats induced by Retinoic acid	67.16
